# TEST TARGET: human TLR9 (Homo sapiens)
# Sequence (Q9NR96 26-1032): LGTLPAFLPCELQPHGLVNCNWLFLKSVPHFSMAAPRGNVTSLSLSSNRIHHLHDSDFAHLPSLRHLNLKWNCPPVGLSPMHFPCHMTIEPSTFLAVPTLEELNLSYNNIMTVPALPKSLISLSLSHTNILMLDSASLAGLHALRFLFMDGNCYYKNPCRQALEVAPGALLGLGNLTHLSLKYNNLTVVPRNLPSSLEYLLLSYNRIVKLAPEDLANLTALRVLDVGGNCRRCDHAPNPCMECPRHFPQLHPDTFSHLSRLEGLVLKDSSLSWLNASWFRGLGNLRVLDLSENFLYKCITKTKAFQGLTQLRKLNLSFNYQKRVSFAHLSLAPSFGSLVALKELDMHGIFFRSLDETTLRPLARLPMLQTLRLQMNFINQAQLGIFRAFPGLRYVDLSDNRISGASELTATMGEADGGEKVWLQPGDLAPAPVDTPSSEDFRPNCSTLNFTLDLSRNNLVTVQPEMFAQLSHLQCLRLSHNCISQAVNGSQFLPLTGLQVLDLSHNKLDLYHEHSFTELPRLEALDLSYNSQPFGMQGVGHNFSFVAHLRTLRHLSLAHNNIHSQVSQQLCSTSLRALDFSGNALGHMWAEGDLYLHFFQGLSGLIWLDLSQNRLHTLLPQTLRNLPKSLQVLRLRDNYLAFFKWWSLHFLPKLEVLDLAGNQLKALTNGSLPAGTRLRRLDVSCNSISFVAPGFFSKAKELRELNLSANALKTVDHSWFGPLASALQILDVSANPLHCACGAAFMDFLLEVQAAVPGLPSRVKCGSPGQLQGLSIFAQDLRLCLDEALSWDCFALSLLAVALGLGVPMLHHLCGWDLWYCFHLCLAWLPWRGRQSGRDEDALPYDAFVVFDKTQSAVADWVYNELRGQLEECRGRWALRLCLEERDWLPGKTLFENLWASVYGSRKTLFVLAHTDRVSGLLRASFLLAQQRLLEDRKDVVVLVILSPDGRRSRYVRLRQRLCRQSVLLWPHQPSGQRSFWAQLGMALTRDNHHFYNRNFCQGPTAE
# ASSAY PROCEDURE: TLR9 inhibition reporter assay (HEK-Blue cells, SEAP reporter, ODN2006 stimulation)
# TEST SETTINGS: HEK-Blue cells overexpressing human TLR9, SEAP reporter, ODN2006 5 nM
METRIC NAME: IC50 (µM)

{"COMPOUND": "Cc1cc(-c2[nH]c3ccc([C@@H]4C[C@H]4C(=O)NC4CC5CCN4CC5)cc3c2C(C)C)ccn1 (some centres unmarked) [Example 460]", "METRIC NAME": "IC50", "MEASUREMENT": 0.179}
{"COMPOUND": "CNC(=O)CNC1CCC(c2ccc3[nH]c(-c4cc(C)c5ncnn5c4)c(C(C)C)c3c2)CC1 (single isomer, unassigned) [Example 162]", "METRIC NAME": "IC50", "MEASUREMENT": 2.11}
{"COMPOUND": "Cc1cc(-c2[nH]c3ccc(C4CNC4)cc3c2C(C)C)cn2ncnc12", "METRIC NAME": "IC50", "MEASUREMENT": 0.76}
{"COMPOUND": "COc1cc(-c2[nH]c3ccc(C4CN(C)C4)cc3c2C(C)C)cn2ncnc12", "METRIC NAME": "IC50", "MEASUREMENT": 5.25}
{"COMPOUND": "Cc1cc(-c2[nH]c3ccc(C4CCCN(C(=O)C5(N)CC5)C4)cc3c2C(C)C)cc(C)n1 (centres unmarked)", "METRIC NAME": "IC50", "MEASUREMENT": 19.3}
{"COMPOUND": "COc1cc(-c2[nH]c3ccc(CC4CN(CCS(C)(=O)=O)C4)cc3c2C(C)C)cn2ncnc12", "METRIC NAME": "IC50", "MEASUREMENT": 2.77}

I = Cc1cc(-c2[nH]c3ccc(C4CCCCC4)cc3c2C(C)C)cn(C)c1=O
II = Cc1c(-c2[nH]c3ccc(C4CCC(NC5COC5)CC4)cc3c2C(C)C)cn(C)c(=O)c1C (centres unmarked) [Example 474]
Q: Between the two listed entries I and II , which has its IC50 at the higher number? Could you answer with the label of the item you picked?
Ans: II

a = Cc1cc(-c2[nH]c3ccc(C4CN(CC(=O)N(C)C)CCO4)cc3c2C(C)C)cc(C)n1 (centres unmarked) [Example 322]
b = COc1cc(-c2[nH]c3ccc(C4CCCN(C)C4)cc3c2C(C)C)cn2ncnc12 (centres unmarked) [Example 238]
c = CCN(C)CC(=O)N1CCOC(c2ccc3[nH]c(-c4cc(OC)c5ncnn5c4)c(C(C)C)c3c2)C1 (centres unmarked)
d = CCc1c(-c2ccnc(C)c2)[nH]c2ccc(CNC(=O)CCN(C)C)cc12
e = Cc1c(-c2[nH]c3ccc(C4CC5CN(C6CCOCC6)CC5C4)cc3c2C(C)C)cn2cnnc2c1C (centres unmarked)
Q: Rank by IC50 (largest to smallest). # output: labels, in the requested order
Ans: e, a, c, b, d
(e: 38.2 µM, a: 20.3 µM, c: 3.63 µM, b: 1.24 µM, d: 0.823 µM)

P = Cc1c(-c2[nH]c3ccc(C4CNC(C)(C)CO4)cc3c2C(C)C)cn2ncnc2c1C (centres unmarked) [Example 370]
Q = COc1cc(-c2[nH]c3ccc(C4CCCN(C)C4)cc3c2C(C)C)cn2ncnc12 (centres unmarked) [Example 241]
R = COc1cc(-c2[nH]c3ccc(C4CCCN(C(=O)CN(C)C)C4)cc3c2C(C)C)cn2ncnc12 (centres unmarked) [Example 192]
Q: // smallest IC50 at index 0, largest at the end Present the labels in the sequence the task asks for.
Ans: Q, R, P
(Q: 1.3 µM, R: 2.83 µM, P: 14.8 µM)

a = COc1cc(-c2[nH]c3ccc(C4CCC(NC(=O)CNCC5COC(C)(C)O5)CC4)cc3c2C(C)C)cn2ncnc12 (centres unmarked)
b = Cc1c(-c2[nH]c3ccc(C4CCC(N)CC4)cc3c2C(C)C)cn2cnnc2c1C (centres unmarked) [Example 516]
Q: Could you check which of a and b has a smaller value for IC50? Your choice should be expressed through its label.
Ans: b

---

# TEST TARGET: human TLR9 (Homo sapiens)
# ASSAY PROCEDURE: TLR9 inhibition reporter assay (HEK-Blue cells, SEAP reporter, ODN2006 stimulation)
# TEST SETTINGS: HEK-Blue cells overexpressing human TLR9, SEAP reporter, ODN2006 5 nM
METRIC NAME: IC50 (µM)

1 = Cc1cc(-c2[nH]c3ccc(C4CCC(C(=O)N5CCN(C)CC5)CC4)cc3c2C(C)C)cn2ncnc12 (single isomer, unassigned) [Example 156]
2 = Cc1cc(-c2[nH]c3ccc(C4CN(CC(C)(C)O)CCO4)cc3c2C(C)C)cc(C)n1 (centres unmarked) [Example 357]
3 = COc1cc(-c2[nH]c3ccc(C4CN(CC(=O)N(C)C)C4)cc3c2C(C)C)cn2ncnc12
4 = Cc1cc(-c2[nH]c3ccc(C4CN(CCS(C)(=O)=O)C4)cc3c2C(C)C)cn2ncnc12
5 = COc1cc(-c2[nH]c3ccc(C4CCC(N5CC[C@@H](N(C)C)C5)CC4)cc3c2C(C)C)cn2ncnc12 (some centres unmarked) [Example 30]
Q: Order by IC50, smallest first, the items presented above. I would appreciate it if you listed the labels in the requested order.
Ans: 5, 2, 1, 4, 3
(5: 0.824 µM, 2: 1.97 µM, 1: 3.64 µM, 4: 8.17 µM, 3: 22.9 µM)

P = CCCN1CC(c2ccc3[nH]c(-c4cn(C)c(=O)c(C)c4C)c(C(C)C)c3c2)C1
Q = COc1cc(-c2[nH]c3ccc(C4CCC(N5CCC5)CC4)cc3c2C(C)C)cn2ncnc12 (centres unmarked)
Q: Quick one: lower IC50, P or Q ? To answer, give the label that identifies your chosen option.
Ans: Q
(Q: 1.92 µM, P: 4.24 µM)

---

# TEST TARGET: human TLR7 (Homo sapiens, UniProt Q9NYK1)
# Sequence (Q9NYK1 27-1049): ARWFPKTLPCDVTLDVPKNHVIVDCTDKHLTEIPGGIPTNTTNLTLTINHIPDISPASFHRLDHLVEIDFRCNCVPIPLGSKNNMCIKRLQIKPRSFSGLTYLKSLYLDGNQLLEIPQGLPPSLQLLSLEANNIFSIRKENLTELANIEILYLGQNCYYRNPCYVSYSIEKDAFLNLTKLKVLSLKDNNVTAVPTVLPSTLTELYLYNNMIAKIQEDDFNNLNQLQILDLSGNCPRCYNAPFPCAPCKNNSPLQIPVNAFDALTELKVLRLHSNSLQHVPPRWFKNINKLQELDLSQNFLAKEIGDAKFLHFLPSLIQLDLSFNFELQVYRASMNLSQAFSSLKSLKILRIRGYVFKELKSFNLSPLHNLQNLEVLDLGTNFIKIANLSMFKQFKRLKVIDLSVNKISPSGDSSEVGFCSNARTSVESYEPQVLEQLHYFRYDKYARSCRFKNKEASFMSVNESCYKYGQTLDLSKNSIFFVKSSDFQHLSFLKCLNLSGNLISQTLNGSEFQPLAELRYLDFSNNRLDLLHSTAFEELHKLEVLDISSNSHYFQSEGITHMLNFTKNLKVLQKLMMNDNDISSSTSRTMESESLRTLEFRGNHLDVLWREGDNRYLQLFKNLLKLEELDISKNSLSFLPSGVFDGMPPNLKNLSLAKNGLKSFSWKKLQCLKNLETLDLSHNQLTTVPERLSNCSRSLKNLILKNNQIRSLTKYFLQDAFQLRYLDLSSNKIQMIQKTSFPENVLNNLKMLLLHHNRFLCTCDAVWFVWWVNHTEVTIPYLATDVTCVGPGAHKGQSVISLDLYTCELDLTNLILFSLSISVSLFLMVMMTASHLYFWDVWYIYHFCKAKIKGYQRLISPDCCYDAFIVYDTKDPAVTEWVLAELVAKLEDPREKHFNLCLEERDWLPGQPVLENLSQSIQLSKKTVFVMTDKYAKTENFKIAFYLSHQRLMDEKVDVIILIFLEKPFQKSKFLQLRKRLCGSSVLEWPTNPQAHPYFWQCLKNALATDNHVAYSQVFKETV
# ASSAY PROCEDURE: TLR7 inhibition reporter assay (HEK-Blue cells, SEAP reporter, gardiquimod stimulation)
# TEST SETTINGS: HEK-Blue cells overexpressing human TLR7, SEAP reporter, gardiquimod 7.5 μM
METRIC NAME: IC50 (nM)

Worked set:
{"MOLECULE": "Cc1cc(-c2[nH]c3ccc(C4CN(C(=O)CN(C)C)C(C)(C)CO4)cc3c2C(C)C)cn2ncnc12 (single isomer, unassigned) [Example 372]", "TEST TARGET": "human TLR7 (Homo sapiens, UniProt Q9NYK1)", "IC50 / nM": 8}
{"MOLECULE": "COc1cc(-c2[nH]c3ccc(C4CNCCO4)cc3c2C(C)C)cn2ncnc12 (centres unmarked) [Example 284]", "TEST TARGET": "human TLR7 (Homo sapiens, UniProt Q9NYK1)", "IC50 / nM": 1}
{"MOLECULE": "Cc1c(-c2[nH]c3ccc(C4CCC(N(C)C)CC4)cc3c2C(C)C)cn2ncnc2c1C (centres unmarked) [Example 111]", "TEST TARGET": "human TLR7 (Homo sapiens, UniProt Q9NYK1)", "IC50 / nM": 1}

A = COc1cc(-c2[nH]c3ccc(CC4CNC4)cc3c2C(C)C)cn2ncnc12 [Example 430]
B = Cc1cc(-c2[nH]c3ccc(C4CN(CC(C)(C)O)CCO4)cc3c2C(C)C)cc(C)n1 (centres unmarked) [Example 357]
Q: Thinking about recorded IC50 values, which is higher, A or B ? Pick one and reply with its label.
Ans: B
(B: 36 nM, A: 12 nM)

I = Cc1c(-c2[nH]c3ccc(C4CCC(N)CC4)cc3c2C(C)C)cn2cnnc2c1C (centres unmarked) [Example 515]
II = COCCN1CCN(C2CCC(c3ccc4[nH]c(-c5cc(OC)c6ncnn6c5)c(C(C)C)c4c3)CC2)CC1 (single isomer, unassigned) [Example 38]
Q: Param pair: I , II . Output: the one whose IC50 is numerically greater. // caller expects the label of the chosen entry
Ans: I
(I: 6 nM, II: 1 nM)

a = Cc1cc(-c2[nH]c3ccc(C4CCC(N5CCOCC5)CC4)cc3c2C(C)C)cc(C)n1 (centres unmarked) [Example 55]
b = Cc1c(-c2[nH]c3ccc(C4CCC(N5CCOCC5)CC4)cc3c2C(C)C)cn2ncnc2c1C (single isomer, unassigned) [Example 92]
Q: # returns the entry with the larger IC50; inputs a and b # answer = label of selected item
Ans: a

---

# TEST TARGET: human TLR8 (Homo sapiens)
# Sequence (Q9NR97 27-1041): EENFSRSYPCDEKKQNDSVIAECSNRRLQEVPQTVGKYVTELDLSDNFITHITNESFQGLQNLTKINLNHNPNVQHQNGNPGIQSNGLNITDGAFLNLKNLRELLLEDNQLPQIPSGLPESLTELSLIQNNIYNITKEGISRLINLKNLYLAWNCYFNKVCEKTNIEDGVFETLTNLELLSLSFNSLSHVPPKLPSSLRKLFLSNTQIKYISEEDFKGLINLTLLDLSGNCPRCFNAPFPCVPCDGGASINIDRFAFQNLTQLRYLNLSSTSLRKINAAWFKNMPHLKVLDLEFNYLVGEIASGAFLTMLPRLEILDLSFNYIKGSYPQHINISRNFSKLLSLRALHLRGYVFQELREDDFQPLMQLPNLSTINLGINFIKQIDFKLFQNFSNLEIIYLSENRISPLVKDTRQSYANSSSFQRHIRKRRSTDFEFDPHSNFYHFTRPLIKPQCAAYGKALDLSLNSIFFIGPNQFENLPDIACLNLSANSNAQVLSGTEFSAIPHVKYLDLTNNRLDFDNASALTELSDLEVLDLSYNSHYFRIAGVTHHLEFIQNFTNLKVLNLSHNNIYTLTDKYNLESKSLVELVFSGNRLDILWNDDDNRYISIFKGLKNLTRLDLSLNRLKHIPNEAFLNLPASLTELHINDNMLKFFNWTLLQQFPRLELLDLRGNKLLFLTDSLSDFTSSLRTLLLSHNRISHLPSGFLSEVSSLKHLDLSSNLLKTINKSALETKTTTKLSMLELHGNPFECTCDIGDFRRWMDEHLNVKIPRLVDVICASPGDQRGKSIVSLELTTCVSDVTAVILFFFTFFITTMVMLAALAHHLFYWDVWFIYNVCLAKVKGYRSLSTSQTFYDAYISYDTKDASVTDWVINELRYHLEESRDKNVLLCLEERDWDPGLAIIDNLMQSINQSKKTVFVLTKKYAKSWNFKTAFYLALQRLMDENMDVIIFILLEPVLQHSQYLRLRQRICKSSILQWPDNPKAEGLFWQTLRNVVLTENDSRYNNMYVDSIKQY
# ASSAY PROCEDURE: TLR8 inhibition reporter assay (HEK-Blue cells, SEAP reporter, R848 stimulation)
# TEST SETTINGS: HEK-Blue cells overexpressing human TLR8, SEAP reporter, R848 15.9 μM
METRIC NAME: IC50 (µM)

{"COMPOUND": "COc1cc(-c2[nH]c3ccc(C4CCC(N5CCCC(F)(F)C5)CC4)cc3c2C(C)C)cn2ncnc12 (stereo not drawn) [Example 35]", "IC50 (µM)": 0.122}
{"COMPOUND": "COc1ccc(CNC2CCC(c3ccc4[nH]c(-c5cc(C)nc(C)c5)c(C(C)C)c4c3)CC2)cc1 (single isomer, unassigned) [Example 50]", "IC50 (µM)": 0.149}

A = CC(C)c1c(-c2ccnc3[nH]ncc23)[nH]c2ccc(C(C)C3CCNCC3)cc12 (stereo not drawn)
B = Cc1cc(-c2[nH]c3ccc(C4CCCN(C(=O)C5(N)CC5)C4)cc3c2C(C)C)cc(C)n1 (stereo not drawn)
C = CNCC(=O)N1CCOC(c2ccc3[nH]c(-c4cc(C)c5ncnn5c4)c(C(C)C)c3c2)C1 (stereo not drawn) [Example 338]
D = Cc1cc(-c2[nH]c3ccc(C4CN(C(=O)CN(C)C)C4)cc3c2C(C)C)cn2ncnc12
Q: Put the items in sequence by IC50, from largest down. Return value: ordered labels per request.
Ans: B, A, C, D
(B: 0.109 µM, A: 0.016 µM, C: 0.0071 µM, D: 0.0029 µM)
